- Tested on: Heliothis virescens
- Assay Protocol: Tobacco Budworm (Heliothis virescens) topical assay
- Type: in vivo
- Measurement Setup: rate 1 µg/larva; 48 h
Outcome Measure: Tobacco Budworm Typical (48 h) Mortality (%)
Reply numerically in %, unit not repeated.

Worked examples follow.
# Compound, Experimental Result
records = [
    ("CCCCOC1C(OC)C(C)OC(OC2CC3CCC4C5CC(=O)OC(CCCC)CCCC(OC6CCC(N(C)C)C(C)O6)C(C)C(=O)C5=CC4C3C2)C1OC (stereo not shown)", 100),
    ("CCCCC1CCCC(OC2CCC(N(C)C)C(C)O2)C(C)C(=O)C2=CC3C4CC(OC5OC(C)C(OCC)C(OCC)C5OC)CC4CCC3C2CC(=O)O1 (stereo not shown)", 83),
    ("CCCCCOC1C(OC)C(C)OC(OC2CC3CCC4C5CC(=O)OC(CCCC)CCCC(OC6CCC(N(C)C)C(C)O6)C(C)C(=O)C5=CC4C3C2)C1OC (stereo not shown)", 33),
    ("COC1C(C)OC(OC2CC3CCC4C5CC(=O)OC(CCC(C)O)CCCC(OC6CCC(N(C)C)C(C)O6)C(C)C(=O)C5=CC4C3C2)C(OC)C1OC (stereo not shown)", 17),
    ("CC=CC(CC(=O)OC)C1CCCC(OC2CCC(N(C)C)C(C)O2)C(C)C(=O)C2=CC3C(C=CC4CC(OC5OC(C)C(OC)C(OCC)C5OC)CC43)C2CC(=O)O1 (stereo not shown)", 100),
    ("CCC=CC1CCCC(OC2CCC(N(C)CC)C(C)O2)C(C)C(=O)C2=CC3C(C=CC4CC(OC5OC(C)C(OC)C(OC)C5OC)CC43)C2CC(=O)O1 (stereo not shown) [Compound D1]", 83),
]

Provide the documented Tobacco Budworm Typical (48 h) Mortality (%) with Heliothis virescens as the system for CCOC(C)CCC1CCCC(OC2CCC(N(C)C)C(C)O2)C(C)C(=O)C2=CC3C4CC(OC5OC(C)C(OC)C(OC)C5OC)CC4CCC3C2CC(=O)O1 (stereo not shown)
83
